EC50 for assorted binders
Molecular target: T1, full-length Sudan GP (GPFL) (Sudan virus (SUDV), UniProt Q7T9D9 33-650)
T1 construct: also called Sudan GPFL; GP(S)FL
T1 sequence: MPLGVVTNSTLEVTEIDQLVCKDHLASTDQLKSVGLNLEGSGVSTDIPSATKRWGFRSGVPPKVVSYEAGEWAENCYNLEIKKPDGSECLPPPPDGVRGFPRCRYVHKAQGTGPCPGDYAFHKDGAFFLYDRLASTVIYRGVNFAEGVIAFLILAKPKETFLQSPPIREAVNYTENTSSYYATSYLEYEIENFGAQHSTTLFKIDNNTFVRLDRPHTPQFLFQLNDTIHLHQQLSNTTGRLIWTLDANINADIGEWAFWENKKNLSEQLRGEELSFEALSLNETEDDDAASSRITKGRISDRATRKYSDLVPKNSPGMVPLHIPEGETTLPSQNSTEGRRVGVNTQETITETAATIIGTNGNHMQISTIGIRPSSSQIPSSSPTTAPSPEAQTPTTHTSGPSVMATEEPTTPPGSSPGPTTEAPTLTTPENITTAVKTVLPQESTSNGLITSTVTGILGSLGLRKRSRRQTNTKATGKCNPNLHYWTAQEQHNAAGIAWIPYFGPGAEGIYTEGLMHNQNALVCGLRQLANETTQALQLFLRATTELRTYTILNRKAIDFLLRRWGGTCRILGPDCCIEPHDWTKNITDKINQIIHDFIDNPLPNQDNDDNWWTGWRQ
Assay: ELISA on coated GP

{"binder": "antibody 16F6 (antibody, V domains shown) VH: EVQLVESGGGLVTPGGSLKLSCAASGFAFNYYDMFWVRQNTEKRLEWVAYINSGGGNTYYPDTVKGRFTISRDNAKKTLFLQMSSLRSEDTAMYYCARQLYGNSFFDYWGQGTSLTVSA VL: DIVMTQSHKFMSTSVGDRVTITCKASQDVTTAVAWYQQKPGHSPKLLIYWASTRHTGVPDRFTGSGSGTDFTLTLNSVQAEDLALYYCQQHYSTPLTFGAGTKLELK", "value unit": "µg/mL", "EC50": 0.16}
{"binder": "antibody 310L (antibody, V domains shown) VH: EMQLVESGGGLVQPGGSLRLSCAASGFTFDAYAMHWVRQRPGKGLEWISGIIWSGRTTYYADSVKGRFTFSRDNSKNSLYLEMNSLKPEDTALYYCAKDSWNYGVYNSLDVWGRGILVTVSS VL: QSVLTQPPSVSGAPGQRVTISCTGSSSNVGPHYVSWYQHLPGTTPKLLIFQDNKRPSGVSDRFSGSKSASSASLTITGLQTEDEADYYCLSYDSSLNVYIFGSGTRLTVL", "value unit": "µg/mL", "EC50": 0.04}
{"binder": "antibody 315L (antibody, V domains shown) VH: QVQLQESGPGLVKPSETLSLTCTVSGGSITGNYWTWVRQPPGKGLQYIGRFDAGGKTYYNPPLKSRVSILGDKSKNQVSLNLTSVTVADTGVYYCAREQWGQLLSGSFDVWGRGVLVTVSS VL: SYELTQPPSVSVSPGQTARITCSGDALPDYYAHWYQQKSGQAPMLVIYKDTERPSGIPERFSGSSSGTTVSLTISGVQAEDEADYYCQSGDSSGNHWVFGGGTRLTVL", "value unit": "µg/mL", "EC50": 0.01}
